Assay: Liver microsome metabolic stability test, human
Assay type: in vitro ADME
Settings: liver microsomes, 0.5 mg/mL protein, read-out: T½
half-life vs 40 min: less than gives yes (1); not less than gives no (0).

molecule=Nc1nccn2c(C34CCC(CO)(CC3)OC4)nc(-c3ccc(C(F)(F)c4ccccc4Cl)cc3)c12 discrete_label="yes (1)"
molecule="COc1cccc(Oc2ccc(-c3nc(C4CCC(CO)OC4)n4ccnc(N)c34)cc2)c1C#N (single isomer, unassigned) [Compound 89-P1]" discrete_label="no (0)"
molecule="COc1cccc(Oc2ccc(-c3nc(C4CCC(CO)OC4)n4ccnc(N)c34)cc2)c1F (stereo not shown)" discrete_label="yes (1)"
molecule=Nc1nccn2c(C34CCC(CO)(CC3)OC4)nc(-c3ccc(C(=O)Nc4ccccn4)cc3)c12 discrete_label="no (0)"
molecule="Cc1cccc(Oc2ccc(-c3nc(C4CCC(CO)OC4)n4ccnc(N)c34)cc2)c1F (stereo not shown)" discrete_label="yes (1)"
molecule=Nc1nccn2c(C34CCC(CO)(CC3)OC4)nc(-c3ccc(C(=O)Nc4cc(C(F)(F)F)ccn4)cc3)c12 discrete_label="no (0)"
molecule="N#Cc1ccnc(NC(=O)c2ccc(-c3nc(C4CCC(CO)OC4)n4ccnc(N)c34)cc2)c1 (stereo not shown)" discrete_label="no (0)"
molecule="Cc1ccnc(NC(=O)c2ccc(-c3nc(C4CCC(CO)OC4)n4ccnc(N)c34)cc2)c1 (stereo not shown)" discrete_label="no (0)"
molecule="Nc1nccn2c(C3CCC(CO)OC3)nc(-c3ccc(Oc4c(F)cccc4F)cc3)c12 (stereo not shown)" discrete_label="yes (1)"

* * *

Target: BTK wild-type kinase (Homo sapiens (Human), UniProt Q06187)
Sequence (Q06187 whole entry): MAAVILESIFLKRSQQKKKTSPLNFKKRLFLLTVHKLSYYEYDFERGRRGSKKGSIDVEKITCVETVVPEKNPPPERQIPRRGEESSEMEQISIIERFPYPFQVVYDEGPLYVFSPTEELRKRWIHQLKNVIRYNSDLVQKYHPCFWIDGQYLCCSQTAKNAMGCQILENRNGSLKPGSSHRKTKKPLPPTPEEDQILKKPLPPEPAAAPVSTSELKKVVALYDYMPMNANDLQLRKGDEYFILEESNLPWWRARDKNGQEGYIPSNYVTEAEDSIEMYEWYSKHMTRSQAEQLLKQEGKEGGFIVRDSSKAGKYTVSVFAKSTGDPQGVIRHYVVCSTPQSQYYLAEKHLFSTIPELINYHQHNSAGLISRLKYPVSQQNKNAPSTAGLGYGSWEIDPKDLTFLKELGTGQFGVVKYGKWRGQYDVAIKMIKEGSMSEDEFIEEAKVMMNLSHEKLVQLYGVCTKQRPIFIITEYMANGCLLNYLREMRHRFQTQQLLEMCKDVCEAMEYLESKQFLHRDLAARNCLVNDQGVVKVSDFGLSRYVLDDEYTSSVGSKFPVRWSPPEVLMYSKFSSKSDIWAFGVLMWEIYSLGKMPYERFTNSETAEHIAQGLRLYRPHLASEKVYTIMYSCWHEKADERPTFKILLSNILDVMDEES
pIC50: −log10 of the molar value.
QUANTITY_KIND: pIC50

compound=Nc1nccn2c(C34CCC(CO)(CC3)OC4)nc(-c3ccc(C(=O)Nc4cc(C(F)(F)F)ccn4)cc3F)c12 quantity_kind=pIC50 result="> 8.30"
compound="Cc1ccc(Oc2ccc(-c3nc(C4CCC(CO)OC4)n4ccnc(N)c34)cc2)cc1 (stereo not shown)" quantity_kind=pIC50 result="7.00 to 7.70"
compound=Nc1nccn2c(C34CCC(CO)(CC3)OC4)nc(-c3ccc(Oc4cccc(Cl)c4F)cc3)c12 quantity_kind=pIC50 result="7.70 to 8.30"
compound="COc1ccccc1Oc1ccc(-c2nc(C3CCC(CO)OC3)n3ccnc(N)c23)cc1 (stereo not shown)" quantity_kind=pIC50 result="7.00 to 7.70"
compound="Nc1nccn2c(C3CCC(CO)OC3)nc(-c3ccc(C(F)(F)c4ccccc4)cc3)c12 (single isomer, unassigned) [Compound 111-P2]" quantity_kind=pIC50 result="7.00 to 7.70"
compound="COc1cccc(Oc2ccc(-c3nc(C4CCC(C5(O)CC5)OC4)n4ccnc(N)c34)cc2)c1F (stereo not shown)" quantity_kind=pIC50 result="7.00 to 7.70"
compound="CC(C)(c1ccccc1)c1ccc(-c2nc(C3CCC(CO)OC3)n3ccnc(N)c23)cc1 (stereo not shown)" quantity_kind=pIC50 result="< 6.00"

* * *

pIC50: −log10 of the molar value.
Endpoint: pIC50. System: BTK wild-type kinase (Homo sapiens (Human)). Items follow.
QUANTITY_KIND: pIC50

compound="COc1cccc(Oc2ccc(-c3nc(C4CCC(CO)OC4)n4ccnc(N)c34)c(F)c2)c1C#N (stereo not drawn) [Compound 98]" quantity_kind=pIC50 result="> 8.30"
compound="Nc1nccn2c(C3CCC(CO)OC3)nc(-c3cnc(Oc4cccc(Cl)c4)nc3)c12 (stereo not drawn) [Compound 81]" quantity_kind=pIC50 result="< 6.00"
compound="Nc1nccn2c(C3CCC(CO)OC3)nc(-c3ccc(Cc4ccccc4)cc3)c12 (stereo not drawn) [Compound 106]" quantity_kind=pIC50 result="> 8.30"
compound="COc1ccccc1C(=O)NCc1ccc(-c2nn(C3CCC(CO)OC3)c3ncnc(N)c23)cc1 (single isomer, unassigned) [Compound 60-A]" quantity_kind=pIC50 result="7.70 to 8.30"
compound="C[C@](N)(c1ccc(F)cc1)c1cnc(-c2nc(C3CCC(CO)OC3)n3ccnc(N)c23)nc1 (stereo partly drawn) [Compound 49]" quantity_kind=pIC50 result="< 6.00"
compound="Nc1ncc(Cl)n2c(C34CCC(CO)(CC3)OC4)nc(-c3ccc(C(=O)Nc4ccccn4)cc3F)c12 [Compound 36]" quantity_kind=pIC50 result="7.70 to 8.30"
compound="Nc1ncc(Cl)n2c(C3CCC(CO)OC3)nc(-c3ccc(C(=O)Nc4ccccn4)cc3F)c12 (stereo not drawn) [Compound 4]" quantity_kind=pIC50 result="7.00 to 7.70"
compound="Nc1nccn2c(C3CCC(CO)OC3)nc(-c3ccc(Oc4cccc(OC(F)F)c4F)cc3)c12 (stereo not drawn) [Compound 75]" quantity_kind=pIC50 result="7.70 to 8.30"
compound="Cc1ccc(Oc2ccc(-c3nc(C4CCC(CO)OC4)n4ccnc(N)c34)cc2)c(F)c1 (stereo not drawn) [Compound 77]" quantity_kind=pIC50 result="7.00 to 7.70"
compound="Nc1nccn2c(C3CCC(CO)OC3)nc(-c3ccc(NC(=O)c4ccc(C5CC5)cc4F)cc3)c12 (stereo not drawn) [Compound 46]" quantity_kind=pIC50 result="6.00 to 7.00"
compound="Nc1nccn2c(C34COC(CO)(C3)C4)nc(-c3ccc(C(=O)Nc4ccccn4)cc3F)c12 [Compound 43]" quantity_kind=pIC50 result="7.00 to 7.70"
compound="Nc1nccn2c(C34CCC(CO)(CC3)OC4)nc(-c3ccc(C(F)(F)c4cccc(C5CC5)c4)cc3)c12 [Compound 143]" quantity_kind=pIC50 result="7.00 to 7.70"
compound="CNC(=O)c1cc(Oc2ccc(-c3nc(C4CCC(CO)OC4)n4ccnc(N)c34)cc2)ccn1 (stereo not drawn) [Compound 107]" quantity_kind=pIC50 result="6.00 to 7.00"
compound="Nc1ncnc2c1c(-c1ccc(Oc3ccccc3)cc1)nn2C1CCC(CO)OC1 (stereo not drawn) [Compound 53]" quantity_kind=pIC50 result="7.00 to 7.70"
compound="Cc1cc(NC(=O)c2ccc(C3CC3)cc2F)c(F)cc1-c1nc(C2CCC(CO)OC2)n2ccnc(N)c12 (stereo not drawn) [Compound 31]" quantity_kind=pIC50 result="< 6.00"
